Target: T1, RsmE dimer (P64W, C-terminal His6) (UniProt P0DPC3 1-64, P64W)
T1 sequence: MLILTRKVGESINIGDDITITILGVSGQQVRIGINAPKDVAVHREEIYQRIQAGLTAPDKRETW
Assay: ITC; first site (Kd1); 30 mM NaCl; text: likely upper bound, true value may be <1 nM; 30 mM NaCl, 50 mM potassium phosphate pH 7.2; ITC at 298 K (NaCl varied in Supp. Fig. 8), RNA titrated into 10 uM RsmE monomer, sequential two-site model; NMR at 303/313 K with 3% D2O
Details: protein: recombinant; tags: C-terminal 6xHis; chain copies: 2; hairpin, hexaloop
endpoint name: Kd (nM)
Please give a number only; it is taken to be in nM.

For the binder GGGCCAUCAAGGACGAUGGUCC (structured_RNA) [SL2 RNA (RsmZ)] , what Kd is on record? 1.4
